# Tested on: formation of granulation tissue after subcutaneous implantation of cotton
# Experiment: Chronic antiphlogistic action: cotton pellet test (formation of granulation tissue) in rats
# Test Parameters: rats, 7 x 3.0 mg/kg/day orally, sodium salt
Measure Name: Inhibition of the formation of granulation tissue after treatment for 7 days (%)

| Molecule | Unit Info | Recorded Number |
| --- | --- | --- |
| COc1ccc2c(c1)c(CC(=O)O)c(C)n2C(=O)c1ccc(Cl)cc1 [Compound 2, indomethacin, reference compound] | % | 16 |
| Cc1ccc(Cl)c(Nc2cscc2CC(=O)O)c1Cl [Compound 5] | % | 26 |
| Cc1cccc(Nc2cscc2CC(=O)O)c1Cl [Compound 7] | % | 19 |
| Cc1cccc(C)c1Nc1cscc1CC(=O)O [Compound 9] | % | 19 |
| O=C(O)Cc1cscc1Nc1c(Cl)cccc1Cl [Compound 3] | % | 22 |
